The reported measurements were obtained from ChEMBL document CHEMBL1156829.

assay: NOVARTIS: Cytotoxicity against human hepatocellular carcinoma cell line (Huh7); format: toxicity, cell-based, Huh-7; conditions: Huh7 cells (hepatocellular carcinoma cell line)
ASSAY_METRIC: CC50

[
  {
    "COMPOUND": "CCOC(=O)C1=C(C)NC2=C(C(=O)C(C(=O)OCC)C(c3cccc(OC)c3)C2)C1c1ccc([N+](=O)[O-])cc1 (stereo not drawn)",
    "CC50": "> 54.6 µM"
  },
  {
    "COMPOUND": "Cc1cc(Nc2ccc(C(=O)n3ccnc3)cc2)n2ncnc2n1",
    "CC50": "> 10 µM"
  },
  {
    "COMPOUND": "C(#Cc1ccccc1)C[N+]1(CCOc2ccccc2)CCCCC1",
    "CC50": "> 100 µM"
  },
  {
    "COMPOUND": "O=C(CN1C(=O)C2C3CCC(C3)C2C1=O)N1CCCC(c2ncncc2-c2ccncc2)C1 (stereo not drawn)",
    "CC50": "> 10 µM"
  },
  {
    "COMPOUND": "COc1cc(C(=O)N2N=C(c3c(-c4ccccc4)c4cc(Br)ccc4[nH]c3=O)CC2c2cccc([N+](=O)[O-])c2)cc(OC)c1OC (stereo not drawn)",
    "CC50": "> 100 µM"
  }
]

Provide one value: measured CC50 of `Cc1ccc2nc(-c3ccccc3)cc(C(=O)Nc3ccc(Cl)c(Cl)c3)c2c1`
> 10 µM

---

test: NOVARTIS: Cytotoxicity against human hepatocellular carcinoma cell line (Huh7); type: toxicity, cell-based, Huh-7; details: Huh7 cells (hepatocellular carcinoma cell line)
ASSAY_METRIC: CC50

Some solved entries appear below for comparison.
[
  {
    "MOLECULE": "COc1ccc(/C=C(\\NC(=O)c2ccccc2Br)C(=O)N2CC3CC(C2)c2cccc(=O)n2C3)cc1OC (centres undefined)",
    "CC50": "> 10 µM"
  },
  {
    "MOLECULE": "CCOC(=O)c1cc(-c2ccc(C)cc2)n(CCC(=O)Nc2cccc(C(F)(F)F)c2)c1C",
    "CC50": "33.7 µM"
  },
  {
    "MOLECULE": "Cc1nc(N(C)c2ccc(C(C)C)cc2)c2c(C)c(C(=O)Nc3cc(C)on3)sc2n1",
    "CC50": "> 100 µM"
  },
  {
    "MOLECULE": "CCC1(C)CC(CCNCc2ccccc2O)(c2ccc(OC)cc2)CCO1 (centres undefined)",
    "CC50": "21.4 µM"
  },
  {
    "MOLECULE": "COc1ccc(/C=C2\\SC(=Nc3ccc(F)cc3)NC2=O)c(OC)c1",
    "CC50": "> 10 µM"
  }
]

Provide one value: measured CC50 of Cc1ccc(C(C(=O)NC2CCCCC2)N(C(=O)c2ccc(-c3ccccc3)[nH]2)c2ccc(C3CCCCC3)cc2)o1 (centres undefined)
> 100 µM

Provide one value: measured CC50 of `CCCNC(=O)Cn1nc(C)n2c(cc3sccc32)c1=O`
> 10 µM

Provide one value: measured CC50 of `COc1cc2c(c(OC)c1CN1CCN(c3ccccc3)CC1)C(=O)c1ccccc1C2=O`
> 10 µM

Provide one value: measured CC50 of `O=C(N=CNNc1ccccc1F)c1cc(OCC(F)(F)F)ccc1OCC(F)(F)F`
> 10 µM

---

tested on: Plasmodium falciparum; assay: NOVARTIS: Inhibition of Plasmodium falciparum W2 (drug-resistant) proliferation in erythrocyte-based infection assay; assay type: functional, organism-based; details: Plasmodium falciparum, W2; read-out: EC50
ASSAY_METRIC: EC50 (nM)
# unit: nM | format: bare number

Some solved entries appear below for comparison.
[
  {
    "COMPOUND": "COc1cc(C(=O)OCCC2CCC[N+]3(C)CCCCC23)cc(OC)c1OC (stereo not given)",
    "UNIT_LABEL": "nM",
    "REPORTED": 1340
  },
  {
    "COMPOUND": "CCOc1ccccc1-n1c(C(C)N(Cc2ccccc2)C(=O)Nc2cccc3ccccc23)nc2ccccc2c1=O (stereo not given)",
    "UNIT_LABEL": "nM",
    "REPORTED": 242
  }
]

Provide one value: measured EC50 of `C=CC[n+]1ccc(/C=C/c2ccccc2)c(C)c1`
558

Provide one value: measured EC50 of `CCN1CCN(c2cc(C)c3cc(NC(=O)C=Cc4cccc(Cl)c4)ccc3n2)CC1`
1260

Provide one value: measured EC50 of `Cc1cc(Nc2ccc(Br)cc2)nc2ccccc12`
1690

Provide one value: measured EC50 of `CCc1c(C)nc2cc(-c3cc(OC)cc(OC)c3)nn2c1NCCCn1ccnc1`
185

Provide one value: measured EC50 of CCC(CC)C(=O)Nc1c2c(nn1-c1cccc(Cl)c1)C[S+]([O-])C2 (stereo not given)
1300

---

system: Plasmodium falciparum; assay: NOVARTIS: Inhibition of Plasmodium falciparum W2 (drug-resistant) proliferation in erythrocyte-based infection assay; format: functional, organism-based; conditions: Plasmodium falciparum, W2; read-out: EC50
pEC50: −log10 of the molar value.
Assign class by pEC50: not lower than 6 means criterion met; lower than 6 means criterion not met.

[
  {
    "MOLECULE": "Cc1c(C=O)c2ccccc2n1CC(=O)Nc1cccc(I)c1",
    "CLASSIFICATION": "criterion met"
  },
  {
    "MOLECULE": "O=C(CSc1nc2cc3c(cc2c(=O)n1Cc1ccco1)OCO3)Nc1cc(C(F)(F)F)ccc1Cl",
    "CLASSIFICATION": "criterion met"
  },
  {
    "MOLECULE": "CCC(SC1=Nc2ccccc2C2=NC(C(C)C)C(=O)N12)C(=O)Nc1cccc(C)c1 (stereo not given)",
    "CLASSIFICATION": "criterion not met"
  },
  {
    "MOLECULE": "COc1ccc(S(=O)(=O)N=C2C=C(Nc3ccccc3OC)C(=O)c3ccccc32)cc1",
    "CLASSIFICATION": "criterion met"
  }
]

Reported pEC50 reaches at least 6 for `COc1cc(N)c(Cl)cc1C(=O)NCC1CCN(c2nc(C)cc(C)n2)CC1` ?
criterion met

Reported pEC50 reaches at least 6 for OC1CCCCC1C1(NC(=S)Nc2ccccc2)CCCCC1 (stereo not given) ?
criterion met

Reported pEC50 reaches at least 6 for `COc1cc2nc(C3CCC3)n(NC(=O)c3cccc(F)c3)c(=O)c2cc1OC` ?
criterion not met

---

experiment: NOVARTIS: Cytotoxicity against human hepatocellular carcinoma cell line (Huh7); assay type: toxicity, cell-based, Huh-7; conditions: Huh7 cells (hepatocellular carcinoma cell line)
ASSAY_METRIC: CC50

Some solved entries appear below for comparison.
[
  {
    "COMPOUND": "Oc1ccccc1Nc1nc(-c2ccccc2O)nc2ccccc12",
    "CC50": "> 100 µM"
  },
  {
    "COMPOUND": "CCOC(=O)c1c(C)oc2c1c1c(c3ccccc32)OCN(C2CCCC2)C1",
    "CC50": "> 100 µM"
  },
  {
    "COMPOUND": "CCn1nc(/C=C/c2ccccc2)nc2c(=O)n(C)c(=O)nc1-2",
    "CC50": "42 µM"
  },
  {
    "COMPOUND": "COc1ccc(S(=O)(=O)N(C)CCCNc2ccnc3cc(Cl)ccc23)cc1",
    "CC50": "10.1 µM"
  },
  {
    "COMPOUND": "O=C(CCl)Nc1ccc(N2CCCCC2)cc1",
    "CC50": "41.2 µM"
  }
]

Consider the additional compound presented here.
Provide one value: measured CC50 of `C=C(C)C(=O)OCCc1ccc(O)c(-n2nc3ccccc3n2)c1`
> 10 µM

---

assay: NOVARTIS: Cytotoxicity against human hepatocellular carcinoma cell line (Huh7); type: toxicity, cell-based, Huh-7; conditions: Huh7 cells (hepatocellular carcinoma cell line)
ASSAY_METRIC: CC50

[
  {
    "CHEM_SMILES": "O=C(NCCc1nc(-c2ccncc2)n[nH]1)C12CC3CC(CC(C3)C1)C2",
    "CC50": "> 100 µM"
  }
]

Provide one value: measured CC50 of `Cc1cc(Nc2cc3ccccc3cc2O)n2ncnc2n1`
1.75 µM

Provide one value: measured CC50 of `O=C1C=C(Nc2cccc(C(F)(F)F)c2)C(=O)c2ccccc21`
> 100 µM

Provide one value: measured CC50 of `O=C(Cn1nc([N+](=O)[O-])nc1Br)NC1CCCCC1`
> 100 µM

---

test system: Plasmodium falciparum; assay: NOVARTIS: Inhibition of Plasmodium falciparum 3D7 (drug-susceptible) proliferation in erythrocyte-based infection assay; format: functional, organism-based; settings: Plasmodium falciparum, 3D7
pEC50: −log10 of the molar value.
Assign class by pEC50: not lower than 6 means y; lower than 6 means n.

[
  {
    "COMPOUND": "O=C(NCCc1ccccc1)C1CCC(Cn2c(=S)[nH]c3ccccc3c2=O)CC1 (stereo unspecified)",
    "SYSTEM_UNDER_TEST": "Plasmodium falciparum",
    "CLASSIFICATION": "n"
  },
  {
    "COMPOUND": "CCOc1ccc(N(C(=O)C2COc3ccccc3O2)C(C(=O)NC2CCCCC2)c2cn(C)nc2C)cc1 (stereo unspecified)",
    "SYSTEM_UNDER_TEST": "Plasmodium falciparum",
    "CLASSIFICATION": "y"
  },
  {
    "COMPOUND": "Cc1c(C)c(C)c(CNC(=S)NN)c(C)c1C",
    "SYSTEM_UNDER_TEST": "Plasmodium falciparum",
    "CLASSIFICATION": "n"
  },
  {
    "COMPOUND": "CCc1ccc2[nH]c(=O)c(CN(CCN(CC)CC)C(=S)NCCCN(C)C)cc2c1",
    "SYSTEM_UNDER_TEST": "Plasmodium falciparum",
    "CLASSIFICATION": "n"
  },
  {
    "COMPOUND": "COc1ccc(N(CCCNC(=O)CCl)C(=O)Nc2cccc(Cl)c2)cc1",
    "SYSTEM_UNDER_TEST": "Plasmodium falciparum",
    "CLASSIFICATION": "n"
  }
]

Reported pEC50 reaches at least 6 for `O=C(CNCCc1ccccc1)NC(c1ccccc1)c1ccccc1` ?
n

Reported pEC50 reaches at least 6 for `CC[n+]1c(/C=C/C=C2\N(C)c3ccccc3C2(C)C)n(Cc2ccccc2)c2ccccc21` ?
y

Reported pEC50 reaches at least 6 for `CCN1/C(=C/C=C/c2sc3ccccc3[n+]2CC)Sc2ccccc21` ?
y

Reported pEC50 reaches at least 6 for CCOc1ccccc1CN1CCCC(C(=O)N2CCCCCC2)C1 (stereo unspecified) ?
n

Reported pEC50 reaches at least 6 for `Cc1cccc(NC2=NC(N)=NC(C)(C)N2)c1` ?
y
